- System: VDR:RXRa (NR concentration 270 nM, RXRa partner concentration 90 nM)
- measurement-notes: PBM binding z-score (relative to random genomic background probes); higher = stronger binding; sequences stand for … in GC…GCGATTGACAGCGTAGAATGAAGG
reported-property: PBM binding z-score
Numbers only.

Use the examples below as a reference point.
TCGAGTAGGATACCAATGGGGCATTCAGCTTTCT: -0.497
CCTGCTAGGTCAATGGTTAGCTAAAGCAGCTCGC: 0.802
CCTTACGGGTCACTCCAGGTTATAGCGTCGGAGT: 4.14
CGTCCAAGTTCATAGGAGGTCAGTGAAGACAGAT: 5.91
CATCCAAGGTCAAGGTCAGTGAAAGAGACTCGAA: 5.07
GCTCGGAGGACAAGGTCAGAGTTTTGTCCGTAGA: 1.65
ATTTCTAGGTAAAAGTTCAGTGAATCCCGAGGAT: 1.77
TCTAGCAGGCCAGGGGGTCACTCAAGAGGTACGG: 4.25
ATCTGTAGGTAAGACTCAGTTCAGTGAAGAACGC: 0.82
CTACCAAGGTGAACAAGGCCGTTGATTACTATTC: 3.58

I have 6 sequences here; please give me PBM binding z-score for each one.
1. TCTGCTAGGTCACTTGGTCAGCTAACGAGCTGCC
2. CGGACTGGGGCAGAAAGGTTACCATACCATCCGG
3. TCTTGTAGATCAACAGGAGGTTAAGGAAGATCGA
4. TCCTATAGGTAAACAGGTGAAAGTCCGTAAGTTA
5. AGTCAAAGTTCATCTAGGTAACGTACGATATGCT
6. CCTTACGGGTCAAGGTTATAGCTCGGGTGGTACG

1. 1.3
2. 1.33
3. 0.488
4. 0.775
5. 5.15
6. 3.3

Each of the following entries comes with a recorded value; kindly state PBM binding z-score for each.
1. ATATGTAGGTTTAGGGTCATTCAGGTTGGTTCGC
2. CCTAGCAGGCCAATCTGGGACACTCAAGGCTTGA
3. CCAGACAGGGGAAAGGTAACTCAGTCTGGTACGC
4. TCGAGTAGGTTACAAATGGGGCATTCAGCTTTCT
5. ATCTCTAAGTAAGACTCAGTTCAGTGAAGAACGC
6. ATTAGCAGGCCAAGGGTCACTCAAGATTAGTCCG
7. ACTCGGAGGACAAAGGTCAGAGCTACGCCAGTGA
8. TCTGCTAGGTCAACTATGGTCAGCTAATCTGCTA

[5.54, -0.61, -0.0821, 0.216, 0.712, 2.92, 3.36, 2.12]

Report PBM binding z-score for every entry below.
1. AGAATGAGGTTATTAAGAGCAGGGAATTGCGGTC
2. AGTCAAAGCTCACTAGGTAACGTAAGATTCAGCT

2
-0.551

----------
- System: PPARg:RXRa (NR concentration 180 nM, RXRa partner concentration 90 nM)
- measurement-notes: PBM binding z-score (relative to random genomic background probes); higher = stronger binding; sequences stand for … in GC…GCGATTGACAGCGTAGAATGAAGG
So basically: PBM binding z-score at 4 or higher? That is Condition met. Lower than 4? That is Condition not met.

Below are worked cases with known answers.
ATCGAAAGGTCGAAGGTGGGTATACCCACCCGAA: Condition not met
TCTTGTAGATCAATAGAGGTTAACAAAGTGCGCT: Condition not met
CGAACTAGGTCATTGATAGGACAGTGAATAGTAA: Condition met
GCTAGCAGGCCATTTGGCTCACTCAATGACGGGC: Condition not met
TCATATAGGTAAACATGTGAAAGTCCGTAAGTTA: Condition not met

Please examine the following record next.
Could you please find out whether `TGAATGAGGTTATAAGATCAGGGCACGTTGCAAA` has PBM binding z-score that meets 4 or exceeds it?
Condition not met
